Ref: ChEMBL document CHEMBL4602621

TARGET_ENTITY: 11-beta-hydroxysteroid dehydrogenase 1 (Mus musculus, UniProt P50172)
Sequence (P50172 whole entry): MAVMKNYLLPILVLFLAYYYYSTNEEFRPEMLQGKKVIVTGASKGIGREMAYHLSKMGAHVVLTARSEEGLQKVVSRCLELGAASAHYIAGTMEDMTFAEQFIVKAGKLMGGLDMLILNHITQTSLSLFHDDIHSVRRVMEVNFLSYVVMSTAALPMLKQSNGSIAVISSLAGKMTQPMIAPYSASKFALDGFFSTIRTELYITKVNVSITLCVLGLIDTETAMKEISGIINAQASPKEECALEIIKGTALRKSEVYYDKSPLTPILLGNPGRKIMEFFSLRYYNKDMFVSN
EXPERIMENTAL_DETAILS: Inhibition of mouse 11beta-HSD1 expressed in CHOK1 cells using XL665-labeled cortisol as substrate measured after 24 hrs by HTRF assay
pIC50: −log10 of the molar value.
Returns 1 (yes) if the recorded pIC50 is greater than or equal to 8, and 0 (no) otherwise.

# count of solved cases: 6
| COMPOUND | LABEL_CLASS |
| --- | --- |
| CC1CN(CC(=O)NC2C3CC4CC2CC(C(N)=O)(C4)C3)S(=O)(=O)N(c2ccc(C(F)(F)F)cn2)C1 (centres undefined) | 0 (no) |
| CC1CN(CC(=O)NC2C3CC4CC2CC(C(N)=O)(C4)C3)S(=O)(=O)N(c2c(Cl)cc(C(F)(F)F)cc2Cl)C1 (centres undefined) | 1 (yes) |
| CC1CN(CC(=O)NC2C3CC4CC2CC(C(N)=O)(C4)C3)S(=O)(=O)N(c2c(Cl)cc(-c3ccccc3)cc2Cl)C1 (centres undefined) | 0 (no) |
| Cc1cc(Cl)c(N2CC(C)CN(CC(=O)NC3C4CC5CC3CC(C(N)=O)(C5)C4)S2(=O)=O)c(Cl)c1 (centres undefined) | 1 (yes) |
| CC1CN(CC(=O)NC2C3CC4CC2CC(C(N)=O)(C4)C3)S(=O)(=O)N(c2ccccn2)C1 (centres undefined) | 0 (no) |
| CC(C)C1CN(CC(=O)NC2C3CC4CC2CC(C(N)=O)(C4)C3)S(=O)(=O)N(c2c(Cl)cc(C(F)(F)F)cc2Cl)C1 (centres undefined) | 0 (no) |

Task item: Determine whether this compound has pIC50 no lower than 8: CCC1CN(CC(=O)NC2C3CC4CC2CC(C(N)=O)(C4)C3)S(=O)(=O)N(c2c(Cl)cc(C(F)(F)F)cc2Cl)C1 (centres undefined)
Reply: 0 (no)

Task item: Follow-up item: CC1CN(CC(=O)NC2C3CC4CC2CC(C(N)=O)(C4)C3)S(=O)(=O)N(c2c(Cl)cc(Cl)cc2Cl)C1 (centres undefined)
Reply: 1 (yes)

Task item: Repeat with CC1CN(CC(=O)NC2C3CC4CC2CC(C(N)=O)(C4)C3)S(=O)(=O)N(c2c(Cl)cc(-c3ccco3)cc2Cl)C1 (centres undefined)
Reply: 0 (no)
